- Test system: SF-268
- Test summary: NCI tumour cell line growth inhibition, 48 h
Calls of active or inactive are those of the source. Rule as the data show it: active = GI50 up to about 1.1 µM and inactive = higher.
Return exactly one item of active, inactive

CC(N/N=C(\S)N1CCN(c2ccccn2)CC1)c1nccc2ccccc12 (centres undefined); active
c1ccc(CCc2cccnc2)nc1; inactive
O=C1C(c2ccc([N+](=O)[O-])cc2)=[N+]([O-])c2ccccc21; inactive
C[C@@H](CO)C1=CC(C#C[Si](C)(C)C)N(C(=O)Oc2ccccc2)c2ccccc21 (some centres undefined); inactive
COc1cccc(NC(=O)/C(Cc2nc3ccccc3nc2C)=N/NC(=O)C[n+]2ccccc2)c1; inactive
COc1ccc(-c2c(C(C)=O)c(C)n(C3OC(COC(C)=O)C(OC(C)=O)C(OC(C)=O)C3OC(C)=O)c(=S)c2C#N)cc1 (centres undefined); inactive
O=C(c1ccccc1)c1oc2ccc(Br)cc2c1-c1cnn(-c2ccccc2)c1; inactive
C=C(C)[C@@H]1CC[C@]2(CO)CC[C@]3(C)[C@H](CC[C@@H]4[C@@]5(C)CC[C@H](O)C(C)(C)[C@@H]5CC[C@]43C)[C@@H]12; inactive

Prompt: In this assay, the call recorded for CCCCCCCCCCCCOCC1(COCCCCCCCCCCCC)COC(c2ccc(N)cc2)OC1 was what?
Completion: inactive

* * *

Please respond with reported GI50 for every item in the list.
- System: MDA-MB-435
- Test summary: NCI tumour cell line growth inhibition, 48 h
Active and inactive are the calls of the source. Rule as the data show it: active = GI50 up to about 1.1 µM and inactive = higher. Square brackets hold non-standard residues; d marks the D form. Peptide text beside a SMILES is read from it. * marks the point of attachment. Bn2Val = CC(C)[C@@H](C(=O)*)N(Cc1ccccc1)Cc1ccccc1; NH(3,4-diMeO-benzyl) = COc1ccc(CN*)cc1OC; NMeV = CN[C@H](C(=O)O)C(C)C; dNMeA = CN[C@H](C)C(=O)O

Batch of 4 compounds: report GI50 for each.
1. Cc1c2cccc-2ccc2c1[nH]c1ccccc12
2. CC12CCC(C1)C(C)(C)C2OC(=O)c1ccccc1C(=O)O (centres undefined)
3. CCOC(=O)c1c2ccccc2n2c(N)c(C(N)=O)nnc12
4. COc1ccc(CNC(=O)[C@@H](C)N(C)C(=O)[C@@H]2CCCN2C(=O)[C@H](C(C)C)N(C)C(=O)[C@@H](NC(=O)[C@H](C(C)C)N(Cc2ccccc2)Cc2ccccc2)C(C)C)cc1OC (Bn2Val-V[NMeV]P[dNMeA]-{NH(3,4-diMeO-benzyl)})

Completion:
2.27 µM (inactive)
> 100 µM (inactive)
> 100 µM (inactive)
8.63 µM (inactive)

* * *

- Tested on: A549
- Test summary: NCI tumour cell line growth inhibition, 48 h
The source made the active and inactive calls. Cut-off read from the data, not from the text of the source: active = GI50 up to about 1.1 µM and inactive = higher.
Consider the following compounds; for each one, report its GI50.

Some solved cases for reference:
CC1(O)CC(C(F)(F)F)(C(F)(F)F)OC1=O (configuration not stated); > 10 µM (inactive)
CN(C)C=O.O=C(Nc1nnn[nH]1)c1nc(O)cc(-c2ccccc2)n1; > 100 µM (inactive)
CCc1n[nH]c(=O)n1N=C(c1ccccc1)c1ccccc1; > 100 µM (inactive)
O=c1cc2ccccc2nn1-c1ccccc1Cl; > 100 µM (inactive)
Cn1c(=O)c(-c2ccccc2)c(N=[N+]=[N-])c2ccccc21; 67.8 µM (inactive)

Hi team, please reply with GI50 for each item in this list.
1. S=C(N/N=C(\c1ccccc1)c1ccccn1)NC1CCCCC1
2. O=C(CC1(O)C(=O)Nc2c(Cl)cc(Cl)cc21)c1ccc([N+](=O)[O-])cc1 (configuration not stated)

Completion:
13.9 µM (inactive)
> 79.8 µM (inactive)

* * *

- Test system: SK-MEL-2
- Test summary: NCI tumour cell line growth inhibition, 48 h
Activity calls are given as the source filed them. No stated cut-off is given here; in the data, active = GI50 up to about 1.1 µM and inactive = higher.
Recorded metric: GI50

O=C(O)CCC(c1ccccc1)(c1ccccc1)c1ccccc1; 22.9 µM (inactive)
COc1cc2c(cc1O)CN1CCC23C=C[C@@H](O)CC13 (stereo not given in full); 44.8 µM (inactive)

I'm hoping you can list GI50 for every compound here, please.
1. O=C(O)C1C2C=CC(O2)C1C(=O)NCc1ccncc1 (stereo not given)
2. N#C[BH2-][n+]1cn(C2CC(OP(=O)(O)OCC3OC(n4cnc5c(=O)[nH]c(N)nc54)CC3O)C(CO)O2)c2nc(N)[nH]c(=O)c21 (stereo not given)
3. O=c1[nH]c2ccc(CC(=S)N3CCN(c4ccccc4)CC3)cc2s1

Completion:
["> 100 µM (inactive)", "> 100 µM (inactive)", "82.2 µM (inactive)"]

* * *

- Test system: U-251
- Test summary: NCI tumour cell line growth inhibition, 48 h
The source made the active and inactive calls. Cut-off read from the data, not from the text of the source: active = GI50 up to about 1.1 µM and inactive = higher.
Outcome field: choose from active, inactive

Cc1cc2c([nH]c3ccccc32)c2c1OC(C)(C)C1C3CC(C)(C)Oc4c(C)cc5c6ccccc6n(c5c43)C21 (stereo not given); inactive

Prompt: How was COc1cc2c(c(OC)c1OC)C(=O)NCCC2 classified in this test?
Completion: inactive

Prompt: Dear all, I need the recorded test outcome for CN(C)CC(O)CNC(=O)Nc1ccccc1 (stereo not given) , thank you.
Completion: inactive

Prompt: What was the test verdict on CC(C)n1c2c([n+](C)c1/C=C/c1ccccc1)C(=O)c1ccccc1C2=O ?
Completion: active

Prompt: Lab log entry: S=c1cc(S)c2c(=S)sc3nc4ccccn4c(=S)c3c2s1 — outcome as called in the assay?
Completion: inactive

Prompt: Which outcome did this test record for the compound COC(=O)[C@H]1[C@H]2C[C@@H]3c4[nH]c5cc(OC)ccc5c4CCN3C[C@H]2C[C@@H](OC(=O)c2cc(OC)c(OC)c(OC)c2)[C@@H]1OC ?
Completion: inactive

* * *

- Tested on: SF-268
- Test summary: NCI tumour cell line growth inhibition, 48 h
Activity calls are given as the source filed them. Cut-off read from the data, not from the text of the source: active = GI50 up to about 1.1 µM and inactive = higher.
Recorded metric: GI50

CCOC(=O)Nc1ccc2c(c1)c(CCCCCCc1nc3ccccc3c3ccc(NC(=O)OCC)cc13)nc1ccccc12; 26.5 µM (inactive)
Cc1cccc(CC(Cc2ccc(C)cc2C(=O)O)C(=O)O)c1 (stereo unspecified); > 100 µM (inactive)
C=CCCC1(CCP(=O)(c2ccccc2)c2ccccc2)OCCO1; > 100 µM (inactive)
NCCOCC(N)C(=O)O (stereo unspecified); > 100 µM (inactive)
COc1ccc(C2CC(c3cc(C)ccc3O)=NC(N)=N2)cc1 (stereo unspecified); > 100 µM (inactive)

Consider the record given below.
Prompt: Fill in: GI50 of Cc1cnc2cc(Cl)ccc2c1NCCN(CC(C)C)CC(C)C is ___
Completion: > 100 µM (inactive)

* * *

- System: SR
- Test summary: NCI tumour cell line growth inhibition, 48 h
Active and inactive are the calls of the source. Cut-off read from the data, not from the text of the source: active = GI50 up to about 1.1 µM and inactive = higher.
Recorded metric: GI50

Known GI50 results, listed for orientation:
C/C=C(\CCOS(=O)(=O)c1ccc(C)cc1)[Si](C)(C)C; > 100 µM (inactive)
CC(=O)c1cc2c(Br)cccc2oc1=O; 46.8 µM (inactive)
C=C(C)[C@@H]1CC[C@]2(CO)CC[C@]3(C)[C@H](CC[C@@H]4[C@@]5(C)CC[C@H](O)C(C)(C)[C@@H]5CC[C@]43C)[C@@H]12 [BETULIN]; 43 µM (inactive)
CN(C)CC1=Nc2cccc3cccc(c23)N1; 17.9 µM (inactive)
C=CC[C@@]12CCC(=O)C=C1CCCC2=O; > 100 µM (inactive)
CCC(/C=C/c1ccccc1)=N\N=C(\C=C\c1ccccc1)CC; > 100 µM (inactive)
Cc1ccc(S(=O)(=O)OCC23CCC(CC2)C2CC23)cc1 (stereo not given); 30.2 µM (inactive)
CN1Cc2c(ccc3c2OCO3)[C@@H]2[C@H](O)Cc3cc4c(cc3[C@@H]21)OCO4; 4.15 µM (inactive)

Below are 2 molecules. Give each one its GI50.
1. Cc1ccc([S+]([O-])C(C)C(Cl)c2ccccc2)cc1 (stereo not given)
2. Cc1cc([N+](=O)[O-])ccc1Nc1cccc(Cl)c1C

Completion:
1: 99.3 µM (inactive); 2: 14.7 µM (inactive)

* * *

- Test system: SNB-78
- Test summary: NCI tumour cell line growth inhibition, 48 h
Calls of active or inactive are those of the source. No stated cut-off is given here; in the data, active = GI50 up to about 1.1 µM and inactive = higher.
Outcome field: choose from class 1 = active, class 0 = inactive

COc1cc(C2c3cc4c(cc3[C@@H](OCCN)[C@H]3COC(=O)C23)OCO4)cc(OC)c1O (stereo partly drawn); class 0
O=C(O)C1=C(C(=O)Nc2ccc(NC(=O)C3=C(C(=O)O)C4C=CC3C4)cc2)C2C=CC1C2; class 0
N#CC12CCC1C1CCCCC12N1CCSCC1 (stereo not drawn); class 0

Prompt: Short answer needed: outcome of this test for c1cncc(O[Si](Oc2cccnc2)(Oc2cccnc2)Oc2cccnc2)c1 ?
Completion: class 0

Prompt: Record request — test call for CN(C)CCC(/C=C/c1ccccc1)=N\Nc1ccc(Cl)cc1
Completion: class 0

* * *

- System: HCT-15
I'd be grateful if you could share measured GI50 for these entries.

Record GI50 for all entries; do not skip any.
1. Clc1ccc(-c2ccc(-c3nnc(COc4ccc(OCc5nnc(-c6ccc(-c7ccc(Cl)cc7Cl)o6)o5)c(Cl)c4)o3)o2)c(Cl)c1
2. Cc1ccc(NC(=O)OCC(COc2ccc(Cl)cc2)OC(=O)Nc2ccc(C)cc2)cc1 (stereo not given)

Completion:
["> 100 µM", "29.7 µM"]

Data provenance: ChEMBL document CHEMBL1201862
